Where these numbers come from: patent EP1247803A2

PDGF Kinase %Inhibition reference
- Tgt: PDGF-R (Homo sapiens)
- Sequence (P09619 33-1106, species assumed): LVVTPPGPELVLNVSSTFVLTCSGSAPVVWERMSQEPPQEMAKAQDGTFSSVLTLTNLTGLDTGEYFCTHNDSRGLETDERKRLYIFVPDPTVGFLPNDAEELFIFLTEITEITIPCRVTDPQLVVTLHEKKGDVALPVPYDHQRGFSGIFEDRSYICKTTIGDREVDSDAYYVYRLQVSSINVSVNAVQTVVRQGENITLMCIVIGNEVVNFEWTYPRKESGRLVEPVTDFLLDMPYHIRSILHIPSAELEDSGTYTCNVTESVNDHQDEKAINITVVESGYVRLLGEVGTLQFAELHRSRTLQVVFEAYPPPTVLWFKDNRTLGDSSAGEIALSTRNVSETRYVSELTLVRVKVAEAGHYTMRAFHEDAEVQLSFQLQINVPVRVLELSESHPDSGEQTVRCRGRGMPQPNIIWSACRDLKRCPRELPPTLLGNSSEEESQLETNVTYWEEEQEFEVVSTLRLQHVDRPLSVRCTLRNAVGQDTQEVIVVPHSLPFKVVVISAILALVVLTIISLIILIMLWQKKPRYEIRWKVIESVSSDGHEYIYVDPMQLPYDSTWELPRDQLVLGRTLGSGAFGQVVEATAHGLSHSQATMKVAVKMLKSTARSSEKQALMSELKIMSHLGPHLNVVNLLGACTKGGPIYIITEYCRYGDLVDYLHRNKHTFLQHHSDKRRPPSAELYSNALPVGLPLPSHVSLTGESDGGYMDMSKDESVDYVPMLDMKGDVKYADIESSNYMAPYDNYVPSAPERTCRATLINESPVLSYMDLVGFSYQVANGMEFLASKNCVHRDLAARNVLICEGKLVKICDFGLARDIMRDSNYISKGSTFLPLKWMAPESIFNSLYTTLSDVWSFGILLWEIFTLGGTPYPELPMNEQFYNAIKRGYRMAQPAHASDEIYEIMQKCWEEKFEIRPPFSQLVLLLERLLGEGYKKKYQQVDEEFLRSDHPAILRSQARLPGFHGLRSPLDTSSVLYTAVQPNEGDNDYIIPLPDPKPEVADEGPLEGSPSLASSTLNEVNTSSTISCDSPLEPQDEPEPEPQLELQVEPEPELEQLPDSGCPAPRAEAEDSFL
- Experiment description: PDGF-R ELISA
- Type: cell-based
Observed property: PDGF Kinase %Inhibition (%)

Molecule	Observed property	Observed
COc1ccc(C=C2C(=O)Nc3ccc(Br)c(C)c32)cc1C(C)(C)C [10732/C05]	PDGF Kinase %Inhibition	-17.0
COc1c(C)cc(C=C2C(=O)Nc3ccc(Br)c(C)c32)cc1C [10733/C06]	PDGF Kinase %Inhibition	20.0
COc1cc(C)cc(O)c1C=C1C(=O)Nc2ccc(I)cc21 [10725/B06]	PDGF Kinase %Inhibition	31.3
COc1ccc(OC)c(C=C2C(=O)Nc3ccc(CCCl)cc32)c1 [10728/G02]	PDGF Kinase %Inhibition	0.9
O=C1Nc2ccc(I)cc2C1=Cc1cc(O)c2c(c1O)CCCC2 [10726/B07]	PDGF Kinase %Inhibition	-59.5
O=C1Nc2ccc(S(=O)(=O)Nc3ccc(C(F)(F)F)cc3)cc2C1=Cc1c[nH]cn1 [10725/E11]	PDGF Kinase %Inhibition	20.8
COc1cc(Br)cc(C=C2C(=O)Nc3ccc(I)cc32)c1O [10733/B08]	PDGF Kinase %Inhibition	-15.7
O=C1Nc2ccc(I)cc2C1=Cc1cccc(Br)c1 [10723/B10]	PDGF Kinase %Inhibition	17.2
Cc1c(Br)ccc2c1C(=Cc1cc3ccccc3nc1Cl)C(=O)N2 [10730/C08]	PDGF Kinase %Inhibition	8.5
